Quick list: Antithrombotic Effect: Thrombus weight ±S.E. per entry.
System: male SD rats
Test: Thrombus formation in abdominal vena cava
Format: in vivo
Conditions: 30 mg/kg, p.o.; dry weight of thrombus
The reply should be a number in mg, with the unit left off.

The cases that follow already have their Antithrombotic Effect: Thrombus weight ±S.E. on record.
COMPOUND	ASSAY VALUE
C[C@H](CC[C@H](O)[C@H](C)CO)[C@H]1CC[C@H]2[C@@H]3[C@H](O)C[C@@H]4C[C@H](O)CC[C@]4(C)[C@H]3C[C@H](O)[C@]12C	13.8
C[C@H](CC[C@H](O)[C@@H](C)CO)[C@H]1CC[C@H]2[C@@H]3[C@H](O)C[C@@H]4C[C@H](O)CC[C@]4(C)[C@H]3C[C@H](O)[C@]12C	12.5
C[C@H](CC[C@H](O)CCO)[C@H]1CC[C@H]2[C@@H]3[C@H](O)C[C@@H]4C[C@H](O)CC[C@]4(C)[C@H]3C[C@H](O)[C@]12C	12.3
C[C@H](CCCC(CO)CO)[C@H]1CC[C@H]2[C@@H]3[C@H](O)C[C@H]4C[C@H](O)CC[C@]4(C)[C@H]3C[C@H](O)[C@]12C	12.2
C[C@H](CO)[C@H](O)CC[C@@H](C)[C@H]1CC[C@H]2[C@@H]3[C@H](O)C[C@@H]4C[C@H](O)CC[C@]4(C)[C@H]3C[C@H](O)[C@]12C	12.2

Now consider the entry below.
Q: Field: Antithrombotic Effect: Thrombus weight ±S.E. (male SD rats). Entry: C[C@H](CCCC(CO)CO)[C@H]1CC[C@H]2[C@@H]3[C@H](O)C[C@@H]4C[C@H](O)CC[C@]4(C)[C@H]3C[C@H](O)[C@]12C
Ans: 13.5

* * *

Tested on: male rats of SD line
Assay: High cholesterol feed: blood viscosity, serum total cholesterol, triglyceride, GOT
Type: in vivo
Details: 100 mg/kg/day, p.o., 4 days
PROPERTY: GOT ±S.E. (IU/ℓ)
Respond numerically; units are IU/ℓ and should not be typed.

COMPOUND	SCALE UNIT	ASSAY VALUE
C[C@H](CO)[C@H](O)CC[C@@H](C)[C@H]1CC[C@H]2[C@@H]3[C@H](O)C[C@@H]4C[C@H](O)CC[C@]4(C)[C@H]3C[C@H](O)[C@]12C [Example 12]	IU/ℓ	141
C[C@H](CCCO)[C@H]1CC[C@H]2[C@@H]3[C@H](O)C[C@@H]4C[C@H](O)CC[C@]4(C)[C@H]3C[C@H](O)[C@]12C [Illustrative Example 6, 3α,7α,12α,24-tetrahydroxy-5β-cholan]	IU/ℓ	136
C[C@H](CCCC(C)(O)CO)[C@H]1CC[C@H]2[C@@H]3[C@H](O)C[C@@H]4C[C@H](O)CC[C@]4(C)[C@H]3C[C@H](O)[C@]12C (stereo partly drawn) [Illustrative Example 4, 5β-cholestane-3α,7α,12α,25,26-pentol]	IU/ℓ	116
C[C@H](CC[C@H](O)[C@H](C)CO)[C@H]1CC[C@H]2[C@@H]3[C@H](O)C[C@@H]4C[C@H](O)CC[C@]4(C)[C@H]3C[C@H](O)[C@]12C [Example 10]	IU/ℓ	145

We now examine a further compound.
Q: GOT ±S.E. for C[C@H](CC[C@H](O)[C@@H](C)CO)[C@H]1CC[C@H]2[C@@H]3[C@H](O)C[C@@H]4C[C@H](O)CC[C@]4(C)[C@H]3C[C@H](O)[C@]12C [Example 9] ?
Ans: 138

* * *

Tested on: male SD rats
Assay: Thrombus formation in abdominal vena cava
Format: in vivo
Details: 30 mg/kg, p.o.; dry weight of thrombus
PROPERTY: Antithrombotic Effect: Thrombus weight ±S.E. (mg)
Give your result in mg as a bare value.

Q: Find Antithrombotic Effect: Thrombus weight ±S.E. (male SD rats) for the entry C[C@H](CC[C@H](O)C(CO)CO)[C@H]1CC[C@H]2[C@@H]3[C@H](O)C[C@@H]4C[C@H](O)CC[C@]4(C)[C@H]3C[C@H](O)[C@]12C
Ans: 10.5

Q: Find the measured Antithrombotic Effect: Thrombus weight ±S.E.: item C[C@H](CC[C@@H](O)CCO)[C@H]1CC[C@H]2[C@@H]3[C@H](O)C[C@@H]4C[C@H](O)CC[C@]4(C)[C@H]3C[C@H](O)[C@]12C , target or system male SD rats.
Ans: 13.4

Q: Param readout = Antithrombotic Effect: Thrombus weight ±S.E.; param system = male SD rats; param query = C[C@H](CC[C@H]1OC[C@H]1CO)[C@H]1CC[C@H]2[C@@H]3[C@H](O)C[C@@H]4C[C@H](O)CC[C@]4(C)[C@H]3C[C@H](O)[C@]12C ; response: value
Ans: 11.2

* * *

Listed compounds paired with reported inhibition at 100 µM
Tested on: red blood cells
Assay: Inhibition of thermal hemolysis of red blood cells
Assay type: cell-based, donryu rats
Conditions: Rattus norvegicus, Erythrocyte, 20 min; 0.1 mM; 53°C for 20 minutes; read-out: Hemolysis Inhibition Ratio (%) against Control
Response body: numeric value in %, unit text excluded.

Example entries and their recorded answers appear below.
COMPOUND	SCALE UNIT	inhibition at 100 µM
C[C@H](CCCC(CO)CO)[C@H]1CC[C@H]2[C@@H]3[C@H](O)C[C@@H]4C[C@H](O)CC[C@]4(C)[C@H]3C[C@H](O)[C@]12C	%	20
C[C@H](CC[C@@H](O)C1COC1)[C@H]1CC[C@H]2[C@@H]3[C@H](O)C[C@@H]4C[C@H](O)CC[C@]4(C)[C@H]3C[C@H](O)[C@]12C	%	30
C[C@H](CCCC(C)(O)CO)[C@H]1CC[C@H]2[C@@H]3[C@H](O)C[C@@H]4C[C@H](O)CC[C@]4(C)[C@H]3C[C@H](O)[C@]12C (stereo partly shown)	%	41
C[C@H](CC[C@@H](O)[C@@H](C)CO)[C@H]1CC[C@H]2[C@@H]3[C@H](O)C[C@@H]4C[C@H](O)CC[C@]4(C)[C@H]3C[C@H](O)[C@]12C	%	30
C[C@H](CC[C@@H](O)C(CO)CO)[C@H]1CC[C@H]2[C@@H]3[C@H](O)C[C@@H]4C[C@H](O)CC[C@]4(C)[C@H]3C[C@H](O)[C@]12C	%	42

Q: Name the recorded inhibition at 100 µM for C[C@H](CCCO)[C@H]1CC[C@H]2[C@@H]3[C@H](O)C[C@@H]4C[C@H](O)CC[C@]4(C)[C@H]3C[C@H](O)[C@]12C [Illustrative Example 6, 3α,7α,12α,24-tetrahydroxy-5β-cholan] .
Ans: 38

* * *

System: male mice of ddY line
Type: in vivo
Conditions: 50 mg/kg, i.p., 60 minutes before KCN (3.0 mg/kg) tail intravenous injection
PROPERTY: Lethality (%)
Please respond with the number in % and leave the unit unwritten.

Use these answered entries as a reference point.
MOLECULE	SCALE UNIT	Lethality (%)
C[C@H](CC[C@@H](O)CCO)[C@H]1CC[C@H]2[C@@H]3[C@H](O)C[C@@H]4C[C@H](O)CC[C@]4(C)[C@H]3C[C@H](O)[C@]12C	%	80
C[C@H](CCCC(CO)CO)[C@H]1CC[C@H]2[C@@H]3[C@H](O)C[C@@H]4C[C@H](O)CC[C@]4(C)[C@H]3C[C@H](O)[C@]12C	%	80
C[C@H](CC[C@H]1OC[C@H]1CO)[C@H]1CC[C@H]2[C@@H]3[C@H](O)C[C@@H]4C[C@H](O)CC[C@]4(C)[C@H]3C[C@H](O)[C@]12C	%	80

Q: Looking for the measured Lethality (%) of C[C@H](CCCO)[C@H]1CC[C@H]2[C@@H]3[C@H](O)C[C@@H]4C[C@H](O)CC[C@]4(C)[C@H]3C[C@H](O)[C@]12C [Illustrative Example 6, 3α,7α,12α,24-tetrahydroxy-5β-cholan] , can you help?
Ans: 80

Q: Item under review: C[C@H](CCCC(CO)CO)[C@H]1CC[C@H]2[C@@H]3[C@H](O)C[C@H]4C[C@H](O)CC[C@]4(C)[C@H]3C[C@H](O)[C@]12C . Reported Lethality (%)?
Ans: 80

Q: Which Lethality (%) is reported for this molecule? CC(C)C(O)CC[C@@H](C)[C@H]1CC[C@H]2[C@@H]3[C@H](O)C[C@@H]4C[C@H](O)CC[C@]4(C)[C@H]3C[C@H](O)[C@]12C (stereo partly drawn) [Illustrative Example 5, 3α,7α,12α,24-tetrahydroxy-5β-cholestane]
Ans: 80

Q: I have this molecule here, C[C@H](CC[C@H](O)[C@@H](C)CO)[C@H]1CC[C@H]2[C@@H]3[C@H](O)C[C@@H]4C[C@H](O)CC[C@]4(C)[C@H]3C[C@H](O)[C@]12C , and I need its recorded Lethality (%).
Ans: 80

Q: Param item = C[C@H](CC[C@@H](O)C1COC1)[C@H]1CC[C@H]2[C@@H]3[C@H](O)C[C@@H]4C[C@H](O)CC[C@]4(C)[C@H]3C[C@H](O)[C@]12C ; retrieve measured Lethality (%).
Ans: 80

Q: What value of measured Lethality (%) is listed for C[C@H](CC[C@H](O)[C@H](C)CO)[C@H]1CC[C@H]2[C@@H]3[C@H](O)C[C@@H]4C[C@H](O)CC[C@]4(C)[C@H]3C[C@H](O)[C@]12C ?
Ans: 80

Q: Looking for the measured Lethality (%) of CC(CCC1OCC1CO)C1CCC2C3C(O)CC4CC(O)CCC4(C)C3CC(O)C12C (stereo not shown) , can you help?
Ans: 80

Q: # input molecule: C[C@H](CC[C@H](O)C(CO)CO)[C@H]1CC[C@H]2[C@@H]3[C@H](O)C[C@@H]4C[C@H](O)CC[C@]4(C)[C@H]3C[C@H](O)[C@]12C ; wanted: its Lethality (%)
Ans: 70
